assay.notes: Stability in rat microsomes assessed as parent compound remaining at 0.5 uM measured after 0.5 hrs
Type: ADME, Microsome
test.settings: read-out: Stability
So I've got a bunch of compounds here, and I need their remaining at 0.5 h, 0.5 µM values.
Output spec: scalar in %, unitless text.

*Q* State the recorded remaining at 0.5 h, 0.5 µM for this entry: `CC(=O)C1=C(O)[C@@H]2Oc3c(O)ccc4c3[C@@]23CCN(CC2CC2)[C@H](C4)[C@]3(O)C1`
*A* 80

*Q* Okay, and `O=C(Nc1ccccc1)C1=C(O)[C@@H]2Oc3c(O)ccc4c3[C@@]23CCN(CC2CC2)[C@H](C4)[C@]3(O)C1` ?
*A* 78

*Q* And `Cc1n[nH]c2c1C[C@@]1(O)[C@H]3Cc4ccc(O)c5c4[C@@]1(CCN3CC1CC1)[C@H]2O5` ?
*A* 81

*Q* Same again, this time with `N#Cc1ccc(NC(=O)C2=C(O)[C@@H]3Oc4c(O)ccc5c4[C@@]34CCN(CC3CC3)[C@H](C5)[C@]4(O)C2)cc1`
*A* 92

*Q* Field entry: `O=C(Nc1ccccn1)C1=C(O)[C@@H]2Oc3c(O)ccc4c3[C@@]23CCN(CC2CC2)[C@H](C4)[C@]3(O)C1`
*A* 97

*Q* Another: `CCC(=O)C1=C(O)[C@@H]2Oc3c(O)ccc4c3[C@@]23CCN(CC2CC2)[C@H](C4)[C@]3(O)C1`
*A* 46

*Q* Now the same for `O=C(O)c1ccc2c3c([nH]c2c1Cl)[C@@H]1Oc2c(O)ccc4c2[C@@]12CCN(CC1CC1)[C@H](C4)[C@]2(O)C3`
*A* 100

*Q* Moving on to `CC(C)NC(=O)C1=C(O)[C@@H]2Oc3c(O)ccc4c3[C@@]23CCN(CC2CC2)[C@H](C4)[C@]3(O)C1`
*A* 88

*Q* For `Cc1nc(N)nc2c1C[C@@]1(O)[C@H]3Cc4ccc(O)c5c4[C@@]1(CCN3CC1CC1)[C@H]2O5` then?
*A* 58

*Q* What do you have for `O=C(NCc1ccccc1)C1=C(O)[C@@H]2Oc3c(O)ccc4c3[C@@]23CCN(CC2CC2)[C@H](C4)[C@]3(O)C1` ?
*A* 14

*Q* Record: `CC(C)(NC(=O)C1=C(O)[C@@H]2Oc3c(O)ccc4c3[C@@]23CCN(CC2CC2)[C@H](C4)[C@]3(O)C1)C(=O)NS(C)(=O)=O`
*A* 99

*Q* And for `COC(=O)C(C)(C)NC(=O)C1=C(O)[C@@H]2Oc3c(O)ccc4c3[C@@]23CCN(CC2CC2)[C@H](C4)[C@]3(O)C1` ?
*A* 103

*Q* How about `O=C(Nc1ccc2cc[nH]c2c1)C1=C(O)[C@@H]2Oc3c(O)ccc4c3[C@@]23CCN(CC2CC2)[C@H](C4)[C@]3(O)C1` ?
*A* 86

*Q* Another compound to check: `Cc1noc(C(C)(C)NC(=O)C2=C(O)[C@@H]3Oc4c(O)ccc5c4[C@@]34CCN(CC3CC3)[C@H](C5)[C@]4(O)C2)n1`
*A* 99
